All values here come from ChEMBL document CHEMBL3244082.

System: Mus musculus
METHOD: Analgesic activity in po dosed mouse by hot plate test
Format: functional
Reported ED50 values follow for various molecules

Some entries whose results are on file:
MOLECULE	ED50
CC1C[C@]23CCN(C)[C@H](Cc4ccccc42)[C@@]3(C)O1.Cl (some centres undefined)	16 mg/kg
CC1C[C@]23CCN(C)[C@H](Cc4ccccc42)[C@H]3O1 (some centres undefined)	30 mg/kg
CN(C)CC1C[C@]23CCN(C)[C@H](Cc4ccccc42)[C@@]3(C)O1.Cl (some centres undefined)	> 40 mg/kg

Lab note: next molecule to report on.
Supply measured ED50 of Br.CN1CC[C@]23CC(CBr)O[C@]2(C)[C@H]1Cc1ccccc13 (some centres undefined) in your reply.
64 mg/kg
